test.system: hENPP1 (Homo sapiens, UniProt P22413)
Sequence (P22413 98-925): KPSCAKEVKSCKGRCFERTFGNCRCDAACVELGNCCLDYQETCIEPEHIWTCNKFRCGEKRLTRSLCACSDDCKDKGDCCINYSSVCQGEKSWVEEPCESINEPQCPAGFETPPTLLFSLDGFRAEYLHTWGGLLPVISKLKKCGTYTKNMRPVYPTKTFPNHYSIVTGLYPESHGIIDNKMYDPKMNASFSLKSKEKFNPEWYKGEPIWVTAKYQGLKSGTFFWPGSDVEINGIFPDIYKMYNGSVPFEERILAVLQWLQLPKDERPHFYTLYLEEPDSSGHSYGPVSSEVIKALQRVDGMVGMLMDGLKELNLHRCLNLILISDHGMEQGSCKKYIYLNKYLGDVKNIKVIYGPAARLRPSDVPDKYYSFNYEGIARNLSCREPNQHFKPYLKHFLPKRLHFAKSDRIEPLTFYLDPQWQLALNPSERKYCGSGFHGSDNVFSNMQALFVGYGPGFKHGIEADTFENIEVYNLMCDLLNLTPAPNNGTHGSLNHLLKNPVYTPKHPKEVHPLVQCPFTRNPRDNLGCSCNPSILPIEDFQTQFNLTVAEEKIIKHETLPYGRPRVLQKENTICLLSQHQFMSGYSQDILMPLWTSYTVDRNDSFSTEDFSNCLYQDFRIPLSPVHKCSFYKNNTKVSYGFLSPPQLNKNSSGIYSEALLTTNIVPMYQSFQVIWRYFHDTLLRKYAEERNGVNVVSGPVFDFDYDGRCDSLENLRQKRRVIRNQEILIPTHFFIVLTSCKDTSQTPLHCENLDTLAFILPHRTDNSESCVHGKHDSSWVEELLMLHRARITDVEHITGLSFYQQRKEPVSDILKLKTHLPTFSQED
procedure.text: Differential scanning fluorimetry (DSF) thermal shift of hENPP1
Assay type: binding
measurement.setup: DSF, compounds at 100 µM
quantity.measured: ΔT m

> print(dat)
                                        mol  quantity.measured  meas.value
1  Nc1ncnc2c1ncn2[C@@H]1O[C@H](COP(=O)(O)O)[C@@H](O)[C@H]1O               ΔT m        +2.7
2  Nc1nc(=O)c2ncn([C@@H]3O[C@H](COP(=O)(O)O)[C@@H](O)[C@H]3O)c2[nH]1               ΔT m        +1.0
3  Nc1ncnc2c1ncn2[C@@H]1O[C@H](COP(=O)(O)OP(=O)(O)O)[C@@H](O)[C@H]1O               ΔT m        +3.3
4  O=c1ccn([C@@H]2O[C@H](COP(=O)(O)O)[C@@H](O)[C@H]2O)c(=O)[nH]1               ΔT m        +1.8
